Where do the numbers come from? From PubChem BioAssay (NCATS).

Tested on: PC26
measurement.notes: qHTS profiling for inhibitors of Plasmodium falciparum proliferation (AID 504749); note: nearly all actives have a fitted effect of over 60% in size
condition.notes: P. falciparum in erythrocytes, SYBR Green DNA, 72 h; series mostly up to 28.7 µM
Description: NIH National Institute of Allergy and Infectious Diseases [NIAID] NIH Chemical Genomics Center [NCGC] […] Because mature erythrocytes lack DNA, only Plasmodium-derived DNA is detected. NCGC Assay Protocol Summary: The SYBR Green viability assay was adapted from a method described previously (Plouffe et al., 2008). […] The following morning, fluorescence intensity at 485(14) nm excitation and 535(25) nm emission wavelengths was measured on an EnVision (Perkin Elmer) plate reader. […]
Results filed as inconclusive are left out. Calls of active or inactive are those of the source. Calls come from the whole dose curve; as a rule, active = well fitted inhibition curve with a large enough effect; inconclusive = small, poorly fitted or top-dose-only effect; inactive = flat fitted curve, though single readings scatter.
Give one outcome, nothing more. List: y for active, n for inactive

INSERT INTO results (molecule, class) VALUES
  ('O=C1c2c(O)cccc2Cc2cccc(O)c21', 'n'),
  ('C=Cc1c(C)c2cc3[nH]c(cc4nc(cc5nc(cc1[nH]2)C(C)=C5CCC(=O)O)C(CCC(=O)O)=C4C)c(C)c3C=C', 'n'),
  ('C[C@H](N)[C@H](O)c1cccc(O)c1', 'n'),
  ('O=C(O)c1ccccc1O', 'n'),
  ('Cn1c(=O)c2c(ncn2CC2OCCO2)n(C)c1=O', 'n');

**Q:** Call for entry Nc1ccc(S(=O)(=O)Nc2nccs2)cc1 :
**A:** n

**Q:** Call for entry Nc1ncnc2c1ncn2[C@@H]1O[C@H](CO)[C@@H](O)[C@H]1O :
**A:** n

**Q:** Call for entry CC[C@@]1(c2ccccc2)NC(=O)N(C)C1=O :
**A:** n
